# System: Escherichia coli TOP10;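 note: peptides expressed intracellularly from a pBAD plasmid library in pooled LB shake-flask culture, induced with 0.3% L-arabinose, DNA abundance read by NGS, three biological replicates, DESeq2 with apeglm shrinkage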
# ASSAY REMARKS: shrunken log2 fold change of peptide-encoding DNA abundance (4.5 h post-induction vs induction); higher = less antimicrobial activity (less host growth inhibition)
# MEASUREMENT CONDITIONS: time post-induction: 4.5 h; library: site-saturation at positions 5, 18, 19, 20
Label scheme for shrunken log2 fold change: lower than -0.2 is FALSE, -0.2 and above is TRUE.

INSERT INTO results (seq, classification) VALUES
  ('RRIRFRPPRLPRPRPRPCQIPRP', 'TRUE'),
  ('RRIRERPPRLPRPRPRPDAHPRP', 'FALSE'),
  ('RRIRQRPPRLPRPRPRPNMLPRP', 'FALSE'),
  ('RRIRFRPPRLPRPRPRPNLHPRP', 'FALSE'),
  ('RRIRTRPPRLPRPRPRPYCWPRP', 'TRUE');

Prompt: Decide: shrunken log2 fold change of RRIRDRPPRLPRPRPRPFLLPRP >= -0.2?
Response: TRUE
